- Test target: CSF1R (Homo sapiens (Human), UniProt P07333)
- Sequence (P07333 20-972): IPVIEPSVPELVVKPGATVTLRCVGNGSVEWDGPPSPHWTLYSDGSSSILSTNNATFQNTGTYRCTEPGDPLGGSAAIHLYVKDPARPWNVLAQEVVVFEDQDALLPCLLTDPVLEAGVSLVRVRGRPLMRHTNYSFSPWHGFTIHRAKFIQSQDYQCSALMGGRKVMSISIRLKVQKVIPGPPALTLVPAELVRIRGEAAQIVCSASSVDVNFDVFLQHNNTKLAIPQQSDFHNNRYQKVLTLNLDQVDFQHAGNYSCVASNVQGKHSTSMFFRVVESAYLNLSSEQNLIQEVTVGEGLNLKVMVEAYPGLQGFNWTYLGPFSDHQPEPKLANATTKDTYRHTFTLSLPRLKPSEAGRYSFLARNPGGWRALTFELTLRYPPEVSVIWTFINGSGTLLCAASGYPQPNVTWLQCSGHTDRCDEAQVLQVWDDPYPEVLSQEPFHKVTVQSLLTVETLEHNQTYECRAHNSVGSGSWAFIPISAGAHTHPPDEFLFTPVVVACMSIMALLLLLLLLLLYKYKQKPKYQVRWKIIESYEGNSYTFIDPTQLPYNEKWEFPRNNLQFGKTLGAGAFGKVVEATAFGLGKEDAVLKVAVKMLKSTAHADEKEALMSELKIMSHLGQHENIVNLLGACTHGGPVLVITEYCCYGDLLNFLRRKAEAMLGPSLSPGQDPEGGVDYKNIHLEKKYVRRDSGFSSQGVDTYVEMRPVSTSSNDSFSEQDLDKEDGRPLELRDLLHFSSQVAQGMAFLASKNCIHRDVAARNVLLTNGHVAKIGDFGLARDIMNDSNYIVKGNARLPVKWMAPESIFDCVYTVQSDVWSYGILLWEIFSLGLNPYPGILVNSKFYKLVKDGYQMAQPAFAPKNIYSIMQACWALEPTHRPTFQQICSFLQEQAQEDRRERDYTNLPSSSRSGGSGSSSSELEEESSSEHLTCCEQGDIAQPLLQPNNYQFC
- Procedure summary: Inhibition of CSF1R kinase activity (HTRF KinEASE-TK)
- Condition info: biochemical, HTRF KinEASE-TK
pIC50: −log10 of the molar value.
Measured property: pIC50

Q. Suppose we examine the molecule Cc1cc(F)c(C(=O)Nc2cc3c(cn2)COC3)cc1NC(=O)c1cnc(N)s1 [Example 112] ; what pIC50 value has been reported?
A. 6.00 to 7.00

Q. Then this molecule: Cc1cc(F)c(C(=O)Nc2cncc(C(F)F)c2)cc1NC(=O)c1cnc(N)s1 [Example 246]
A. > 7.00

Q. Then this molecule: CCOc1ccc(NC(=O)c2cc(NC(=O)c3cnc(N)s3)c(F)cc2F)nc1 [Example 212]
A. < 6.00
